Source: ChEMBL document CHEMBL3352814

Test system: MCF7
Test: Antiproliferative activity against human MCF7 cells after 72 hrs by MTS/PMS assay
Assay type: functional, cell-based
Conditions: MCF7, 72 h
Endpoint Label: IC50 (µM)

# example entries with known answers
COc1cccc(-c2cc(C(=O)Nc3ccc(-c4ccc(OC5CCN(C)CC5)cc4)c([N+](=O)[O-])c3)ccc2OC)c1; 3.32
COc1cccc(-c2cc(C(=O)Nc3ccc(-c4ccc(OC5CCN(C)CC5)cc4)c(NC(C)=O)c3)ccc2OC)c1; 4.66
CN1CCC(Oc2ccc(-c3ccc(NC(=O)c4ccc(Cl)cc4Cl)cc3)cc2)CC1; 1.37
COc1ccc(C(=O)Nc2ccc(-c3ccc(OC4CCN(C)CC4)cc3)cc2)cc1-c1cccc(NC(C)=O)c1; 1.43

P = COc1cccc(-c2cc(C(=O)Nc3ccc(-c4ccc(OC5CCN(C)CC5)cc4OC)cc3)ccc2OC)c1
Q = COc1ccc(-c2cc(C(=O)Nc3ccc(-c4ccc(OC5CCN(C)CC5)cc4)cc3)ccc2OC)cc1
-- ask Looking at recorded values for IC50, does P or Q come in lower? Which one? Tell me its label.
-- reply Q
(Q: 0.79 µM, P: 1.35 µM)
